# System: CEM cells
# Assay Summary: Cell cytotoxicity in CEM cells
# Format: cell-based
# Conditions Used: Table 3a
Quantity Measured: CC50

I am curious: what CC50 value has been reported for CCO[C@@H]1C(Cl)C(=O)NC(=O)N1[C@H]1C[C@H](F)[C@@H](CO)O1 (single isomer, unassigned; (+)) ?
> 200 µM

###

# Assay Summary: Cell cytotoxicity in Vero cells
# Type: cell-based
# Conditions Used: African green monkey, Vero cells; Table 3b
Quantity Measured: CC50

>  <Compound>
[N-]=[N+]=NC1C(Cl)C(=O)NC(=O)N1[C@H]1C[C@H](O)[C@@H](CO)O1 (some centres unmarked) [RB-10]

>  <CC50>
> 327 µM

$$$$

API: the following record is the query input.
Name the recorded CC50 for Nc1nc2c(ncn2COCCO)c(=O)[nH]1 [Acyclovir, acyclovir, reference compound] .
> 400 µM

###

# Assay Summary: Cell viability in HFF cells (neutral red)
# Type: cell-based, human
# Conditions Used: human, HFF cells; Table 5
Quantity Measured: CC50 at 7 days

Which value of CC50 at 7 days has been reported for Nc1ccn([C@@H]2CS[C@H](CO)O2)c(=O)n1 [Compound 3-TC, lamivudine, reference compound] in the records?
> 100 µg/mL

###

# System: HFF cells
# Assay Summary: Cell viability in HFF cells (neutral red)
# Assay type: cell-based, human
# Conditions Used: Table 3a; read-out: Cell viability HFF cells CC50
Quantity Measured: CC50

Find the recorded CC50 belonging to CCO[C@@H]1C(Cl)C(=O)NC(=O)N1[C@H]1C[C@H](F)[C@@H](CO)O1 (single isomer, unassigned; (+)) and report it.
> 330 µM

###

# Tested on: duck hepatitis B virus (DHBV)
# Assay Summary: DHBV DNA replication in primary duck hepatocytes (dot blot hybridization)
# Assay type: cell-based
# Conditions Used: Duck hepatitis B virus, Hepatocyte; Table 3a; read-out: % Inhibition of DHBV DNA in duck hepatocytes EC50
Quantity Measured: EC50 (nM)
Give just the numeric value; nM need not be written.

Recorded EC50 of Nc1ccn([C@@H]2CS[C@H](CO)O2)c(=O)n1 [Compound 3-TC, lamivudine, reference compound] , please.
70

###

# System: Vero cells
# Assay Summary: Cell cytotoxicity in Vero cells
# Format: cell-based
# Conditions Used: Table 1
Quantity Measured: CC50

Please look up its CC50: CC1(F)C(=O)NC(=O)N2C3CC(N=[N+]=[N-])C(COC21)O3 (stereo not shown)
> 700 µM

###

# Assay Summary: Cell cytotoxicity in Vero cells
# Assay type: cell-based
# Conditions Used: African green monkey, Vero cells; Table 2
Form field: CC50 (one value per entry).

Answered cases to consult:
>  <Molecule>
O=c1[nH]c(=O)n(CCC(CO)CO)cc1I [Compound 19]

>  <CC50>
> 200 µg/mL

$$$$
>  <Molecule>
C=Cc1cn(COC(CO)CO)c(=O)[nH]c1=O [Compound 9a]

>  <CC50>
> 100 µg/mL

$$$$
>  <Molecule>
[N-]=[N+]=NC(CI)c1cn(COC(CO)CO)c(=O)[nH]c1=O (centres unmarked) [Compound 10c]

>  <CC50>
> 200 µg/mL

$$$$
>  <Molecule>
C=C(N=[N+]=[N-])c1cn(COCCO)c(=O)[nH]c1=O [Compound 7]

>  <CC50>
> 100 µg/mL

$$$$
>  <Molecule>
C=C(N=[N+]=[N-])c1cn(CCC(CO)CO)c(=O)[nH]c1=O [Compound 26]

>  <CC50>
> 200 µg/mL

$$$$
>  <Molecule>
[N-]=[N+]=NC(CCl)c1cn(COC(CO)CO)c(=O)[nH]c1=O (centres unmarked) [Compound 10b]

>  <CC50>
> 200 µg/mL

$$$$

Which CC50 value belongs to C=Cc1cn(CCC(CO)CO)c(=O)[nH]c1=O [Compound 20] ?
> 100 µg/mL

// repeat for [N-]=[N+]=NC(CCl)c1cn(CCC(CO)CO)c(=O)[nH]c1=O (centres unmarked) [Compound 21b] and report
> 200 µg/mL
